Test system: Hs294T (human melanoma)
assay text: cells
Format: cell-based
test context: selectivity coefficient vs normal BALB/3T3 cells
measurement label: Hs294T SI
Keep it simple and answer with nothing but the number.

**Q:** Let me know recorded Hs294T SI for CCNC(=O)N[C@@H]1C=C[C@]2(O[C@H]([C@@H](CC)C(=O)[C@@H](C)[C@@H](O)[C@H](C)[C@@H]3O[C@@H]([C@@H](CC)C(=O)O)CC[C@@H]3C)[C@@H](C)C[C@H]2C)O[C@@]12CC[C@@](C)([C@H]1CC[C@](O)(CC)[C@H](C)O1)O2 [FLC-00358-1] , thanks.
**A:** 0.1

**Q:** Look up and state reported Hs294T SI for CC[C@@H](C(=O)[C@@H](C)[C@@H](O)[C@H](C)[C@@H]1O[C@@H]([C@@H](CC)C(=O)O)CC[C@@H]1C)[C@H]1O[C@]2(C=C[C@@H](NC(=O)NCCCl)[C@]3(CC[C@@](C)([C@H]4CC[C@](O)(CC)[C@H](C)O4)O3)O2)[C@H](C)C[C@@H]1C [FLC-00338-1 Na]
**A:** 0.1

**Q:** Let me know recorded Hs294T SI for CC[C@@H](C(=O)[C@@H](C)[C@@H](O)[C@H](C)[C@@H]1O[C@@H]([C@@H](CC)C(=O)O)CC[C@@H]1C)[C@H]1O[C@]2(C=C[C@@H](NC(=O)NC3CCC3)[C@]3(CC[C@@](C)([C@H]4CC[C@](O)(CC)[C@H](C)O4)O3)O2)[C@H](C)C[C@@H]1C [FLC-00341-1 Na] , thanks.
**A:** 0.1

**Q:** Tell me measured Hs294T SI for CCOC(=O)CNC(=S)N[C@@H]1C=C[C@]2(O[C@H]([C@@H](CC)C(=O)[C@@H](C)[C@@H](O)[C@H](C)[C@@H]3O[C@@H]([C@@H](CC)C(=O)O)CC[C@@H]3C)[C@@H](C)C[C@H]2C)O[C@@]12CC[C@@](C)([C@H]1CC[C@](O)(CC)[C@H](C)O1)O2 [FLC-00352-1] please.
**A:** 0.3
